- Tested on: M14 melanoma
- Experiment Description: NCI-60 one-dose screen, 48 h (100 = growth as untreated, 0 = no growth, -100 = all killed)
- Settings: 10 µM unless noted
Compounds without any hit were thinned out: in the full panel of roughly 83,000, 20% have a hit.
growth less than 80% is YES; growth greater than or equal to 80% is NO.

Is growth of "CC(=O)Nc1c(Cl)cc(Cl)c2c1Cc1cc([N+](=O)[O-])ccc1-2" strictly below 80%?
NO

Dear colleague, could you confirm whether growth of "C=CCn1c(SCC(=O)Nc2ccc(C(=O)/C=C/c3cc(OC)c(OC)c(OC)c3)cc2)nnc1-c1cc(-c2ccc(OC)cc2)nc2ccccc12" falls below 80%? Thanks.
NO

Report whether reported growth is lower than 80% (strictly) for "CCNc1nc(-c2ccc(F)cc2)c(C#N)c(=O)n1C"
NO

growth under 80%? Item: "O=C(Nc1cccc(NC(=O)C2CCCCC2)c1)c1ccccn1"
NO

Next:
Quick check: does "Cc1nc2sc(C(=O)Nc3ccccc3)c(N)c2cc1C(=O)/C=C/c1ccccc1" have growth under 80%?
YES
